test system: U2OS; test: Multiplex assay against U2OS; assay type: toxicity, cell-based; settings: human, 12 h, 1 µM, compound concentration 1 uM, replicate 2
result.type: Population Apoptotic (%)

[[record]]
compound = "CCC(=O)O[C@]1(C(=O)SCF)[C@H](C)C[C@H]2[C@@H]3C[C@H](F)C4=CC(=O)C=C[C@]4(C)[C@@]3(F)[C@@H](O)C[C@@]21C [FLUTICASONE PROPIONATE]"
reading_unit = "%"
val = 71

[[record]]
compound = "Cl.Cl.NC1(c2ccc(-c3nc4ccn5c(=O)[nH]nc5c4cc3-c3ccccc3)cc2)CCC1"
reading_unit = "%"
val = 50

[[record]]
compound = "CCOc1cc(N2CCC(O)CC2)ccc1Nc1ncc2c(n1)N(C1CCCC1)CCC(=O)N2C"
reading_unit = "%"
val = 50

[[record]]
compound = "COc1cc2c(Nc3ccc(NC(=O)c4ccccc4)cc3)ncnc2cc1OCCCN1CCOCC1"
reading_unit = "%"
val = 0

[[record]]
compound = "COc1cc2c(NC3CCN(C(C)C)CC3)nc(N3CCC(F)(F)CC3)nc2cc1OCCCN1CCCC1"
reading_unit = "%"
val = 30

[[record]]
compound = "N#Cc1cnc(Nc2cc(NC[C@H]3CNCCO3)c(C(F)(F)F)cn2)cn1 [SRA-737]"
reading_unit = "%"
val = 16

[[record]]
compound = "CNc1oc(-c2cccc3ccccc23)nc1C#N"
reading_unit = "%"
val = 0

[[record]]
compound = "Cc1cn(-c2cc(NC(=O)c3ccc4c(c3)CN(c3cncnc3)C[C@@H]4C)cc(C(F)(F)F)c2)cn1"
reading_unit = "%"
val = 0


# credit: ChEMBL document CHEMBL4689842
